plant injury at 250 g/ha overview
tested on: Beta vulgaris (BEAVA, sugarbeet); experiment: Biological Example 2 glasshouse assay for herbicidal activity; type: in vivo; conditions: post-emergence, 360 h, 250 g/ha, 14 or 15 DAA, 0.2% v/v X-77, read-out: percentage phytotoxicity BEAVA

compound	plant injury at 250 g/ha, %
CC#Cc1cc(F)c(C2=C(OC(=O)SCC)C3CCC(C3)C2=O)c(OC)c1 (stereo not shown) [Compound P4]	0
CC#Cc1cc(F)c(C2C(=O)C3CCC(C)(C2=O)C3(C)C)c(OC)c1 (stereo not shown) [Compound A2]	0
CC#Cc1cc(F)c(C2C(=O)C3CCC(C3)C2=O)c(OC(F)F)c1 (stereo not shown) [Compound A7]	10
CC#Cc1cc(F)c(C2C(=O)C3CCC(C3)C2=O)c(OC)c1 (stereo not shown) [Compound A1]	30
CC#Cc1cc(F)c(C2=C(OC(=O)C(C)(C)C)C3CCC(C3)C2=O)c(OC)c1 (stereo not shown) [Compound P1]	0
CC#Cc1cc(F)c(C2=C(OC(=O)OC(C)C)C3CCC(C3)C2=O)c(OC)c1 (stereo not shown) [Compound P3]	0
CC#Cc1cc(F)c(C2=C(OC(=O)c3ccccc3)C3CCC(C3)C2=O)c(OC)c1 (stereo not shown) [Compound P5]	0

The origin of these recorded values is patent US10590143B2.
